- Experimental system: GST-PLK1 (Homo sapiens, UniProt P53350)
- Sequence (P53350 whole entry): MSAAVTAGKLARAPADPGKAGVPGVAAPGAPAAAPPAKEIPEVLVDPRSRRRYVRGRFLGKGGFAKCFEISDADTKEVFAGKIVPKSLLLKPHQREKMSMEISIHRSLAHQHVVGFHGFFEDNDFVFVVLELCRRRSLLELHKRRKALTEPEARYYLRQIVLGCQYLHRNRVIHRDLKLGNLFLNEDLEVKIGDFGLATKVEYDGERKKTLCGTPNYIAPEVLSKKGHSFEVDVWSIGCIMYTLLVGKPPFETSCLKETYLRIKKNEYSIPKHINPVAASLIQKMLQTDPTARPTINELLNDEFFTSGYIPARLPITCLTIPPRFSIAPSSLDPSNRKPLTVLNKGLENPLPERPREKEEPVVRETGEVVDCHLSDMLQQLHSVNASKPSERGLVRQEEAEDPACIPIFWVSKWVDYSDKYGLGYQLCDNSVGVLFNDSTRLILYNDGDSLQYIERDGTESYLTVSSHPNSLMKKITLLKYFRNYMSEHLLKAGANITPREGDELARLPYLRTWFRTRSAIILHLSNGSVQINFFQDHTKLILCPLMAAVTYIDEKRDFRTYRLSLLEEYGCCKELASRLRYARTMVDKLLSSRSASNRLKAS
Kindly supply the reported IC50 values for the records listed here.

Briefly, IC50 measured for "COc1cc(C(=O)NC2CCN(C)CC2)ccc1Nc1ncc2c(n1)N(C1CCCC1)C[C@@H](C)C(=O)N2C" : < 0.5 µM

Briefly, IC50 measured for COc1cc(C(=O)NC2CCN(C)CC2)ccc1Nc1ncc2c(n1)N(C1CCOCC1)CC(C)C(=O)N2C (racemic) : < 0.5 µM

Briefly, IC50 measured for "COc1cc(C(=O)N(C)C)ccc1Nc1ncc2c(n1)N(C1CCC1)CCC(=O)N2C" : > 5 µM

Briefly, IC50 measured for "COc1cc(C(N)=O)ccc1Nc1ncc2c(n1)N(C1CCC1)CCC(=O)N2C" : 0.5 to 5 µM

Briefly, IC50 measured for "COc1cc(C(=O)N2CCOCC2)ccc1Nc1ncc2c(n1)N(C1CCCCC1)CCC(=O)N2" : > 5 µM

Briefly, IC50 measured for "Cc1cc(C(=O)NC2CCN(C)CC2)ccc1Nc1ncc2c(n1)N(C1CCCC1)CC1(CC1)C(=O)N2C" : < 0.5 µM

Briefly, IC50 measured for COc1cc(C(=O)NC2CCN(C)CC2)ccc1N(C)c1ncc2c(n1)N(C1CCCCC1)CC(C)C(=O)N2C (racemic) : > 5 µM

Briefly, IC50 measured for CC1CN(C2CCCC2)c2nc(Nc3ccc4oc(-c5ccncc5)nc4c3)ncc2N(C)C1=O (racemic) : > 5 µM

###

Kindly supply the reported IC50 values for the records listed here.
- Experimental system: GST-PLK1 (Homo sapiens, UniProt P53350)
- Construct: Full-length, active GST-PLK1 is purified from Sf9 insect cells; made in house; host or cells: Sf9 insect cells
- Experimental protocol: Biochemical Characterization Assay: GST-PLK1 kinase HTRF assay with GST-p53 substrate
- Assay context: full-length GST-PLK1, GST-p53 and ATP, 37° C. for 35 minutes, HTRF signal

Briefly, IC50 measured for CCCC1CN(C2CCCC2)c2nc(Nc3ccc(C(=O)NC4CCN(C)CC4)cc3OC)ncc2N(C)C1=O (racemic) : 500 to 5000 nM

Briefly, IC50 measured for CC1CN(C2CCCC2)c2nc(Nc3ccc(C(=O)NCCCN(C)C)c(Cl)c3)ncc2N(C)C1=O (racemic) : 500 to 5000 nM

Briefly, IC50 measured for COc1ccc(C(=O)NC2CCOCC2)cc1Nc1ncc2c(n1)N(C1CCCC1)CC(C)C(=O)N2C (racemic) : < 500 nM

Briefly, IC50 measured for CC1CN(C2CCCC2)c2nc(Nc3ccc(OCc4ccccc4)cc3)ncc2N(C)C1=O (racemic) : > 5000 nM

Briefly, IC50 measured for "COc1cc(C(=O)Nc2ccncc2)ccc1Nc1ncc2c(n1)N(C1CCC1)CCC(=O)N2C" : < 500 nM

Briefly, IC50 measured for COc1ccc(C(=O)NCCCN(C)C)cc1Nc1ncc2c(n1)N(C1CCCC1)CC(C)C(=O)N2C (racemic) : < 500 nM

Briefly, IC50 measured for CC1CN(C2CCCC2)c2nc(Nc3ccc(O)c(NC(=O)c4cccnc4)c3)ncc2N(C)C1=O (racemic) : 500 to 5000 nM

Briefly, IC50 measured for COCCCNC(=O)c1cccc(Nc2ncc3c(n2)N(C2CCCC2)CC(C)C(=O)N3C)c1 (racemic) : 500 to 5000 nM

Briefly, IC50 measured for COc1ccc(NC(=O)c2ccccc2)cc1Nc1ncc2c(n1)N(C1CCCC1)CC(C)C(=O)N2C (racemic) : 500 to 5000 nM

Briefly, IC50 measured for CCC1CN(C2CCCC2)c2nc(Nc3ccc(C(=O)NC4CCN(C)CC4)cc3OC)ncc2N(C)C1=O (racemic) : < 500 nM

Briefly, IC50 measured for CC1CN(C2CCCCC2)c2nc(Nc3ccc4oc(-c5ccncc5)nc4c3)ncc2N(C)C1=O (racemic) : > 5000 nM

Briefly, IC50 measured for CC1CN(C2CCCC2)c2nc(Nc3ccc(C(=O)NCCN(C)C)c(Cl)c3)ncc2N(C)C1=O (racemic) : 500 to 5000 nM

Briefly, IC50 measured for "CN1CCC(NC(=O)c2ccc(Nc3ncc4c(n3)N(C3CCCC3)CC(C)(C)C(=O)N4C)cc2)CC1" : < 500 nM

Briefly, IC50 measured for CCN1CCC(NC(=O)c2cccc(Nc3ncc4c(n3)N(C3CCCC3)CC(C)C(=O)N4C)c2)CC1 (racemic) : 500 to 5000 nM

Briefly, IC50 measured for COc1cc(C(=O)NC2CCN(Cc3ccccc3)CC2)ccc1Nc1ncc2c(n1)N(C1CCCC1)CC(C)C(=O)N2C (racemic) : < 500 nM

Briefly, IC50 measured for "COc1cc(C(=O)NC2CCN(C)CC2)ccc1Nc1ncc2c(n1)N1CCC[C@@H]1CC(=O)N2C" : < 500 nM

Briefly, IC50 measured for "CN1CCC(NC(=O)c2ccc(Nc3ncc4c(n3)N(C3CCCC3)CC3(CC3)C(=O)N4C)cc2)CC1" : < 500 nM

Briefly, IC50 measured for COc1cc(C(=O)NC2CCN(C)CC2)ccc1Nc1ncc2c(n1)N(C1CCCCC1)CC(C)C(=O)N2C (racemic) : < 500 nM

Briefly, IC50 measured for "COc1cc(C(=O)NC2CCN(C)CC2)ccc1Nc1ncc2c(n1)N(C1CCC1)CCC(=O)N2C" : < 500 nM

Briefly, IC50 measured for CC1CN(C2CCCC2)c2nc(Nc3cccc(C(=O)NCCCN(C)C)c3)ncc2N(C)C1=O (racemic) : 500 to 5000 nM

###

pIC50: −log10 of the molar value.
Kindly supply the reported pIC50 values for the records listed here.

# pIC50 measured on GST-PLK1 (Homo sapiens, UniProt P53350) for item "COc1cc(C(=O)Nc2ccccc2)ccc1Nc1ncc2c(n1)N(C1CCCCC1)CCC(=O)N2" = < 5.30

# pIC50 measured on GST-PLK1 (Homo sapiens, UniProt P53350) for item "CN1C(=O)C2(CC2)CN(C2CCCC2)c2nc(Nc3ccc(C(=O)NC4CCOCC4)cc3)ncc21" = > 6.30

# pIC50 measured on GST-PLK1 (Homo sapiens, UniProt P53350) for item COc1cc(C(=O)NC2CCN(C)CC2)ccc1Nc1ncc2c(n1)N(C1CCC(C)C1)CCC(=O)N2C (racemic) = > 6.30

# pIC50 measured on GST-PLK1 (Homo sapiens, UniProt P53350) for item COc1cc(C(=O)NC2CCN(C)CC2)ccc1Nc1ncc2c(n1)N(C1CCCC1)C(C)CC(=O)N2C (racemic) = > 6.30

# pIC50 measured on GST-PLK1 (Homo sapiens, UniProt P53350) for item COc1cc(C(=O)NC2CCN(C)CC2)ccc1Nc1ncc2c(n1)N(C1CCC1)CC(C)C(=O)N2C (racemic) = > 6.30

# pIC50 measured on GST-PLK1 (Homo sapiens, UniProt P53350) for item CCC1CN(C2CCCC2)c2nc(Nc3ccc(C(=O)NC4CCN(C)CC4)cc3OC)ncc2N(CC)C1=O (racemic) = 5.30 to 6.30

# pIC50 measured on GST-PLK1 (Homo sapiens, UniProt P53350) for item COc1cc(C(=O)NC2CCN(C)CC2)ccc1Nc1ncc2c(n1)N1CCCC(C1)C(=O)N2C (racemic) = < 5.30

###

Result type: IC50

# IC50 measured on GST-PLK1 (Homo sapiens) for item "COc1cc(C(=O)NC2CCN(C)CC2)ccc1Nc1ncc2c(n1)N(C1CCCC1)CC1(CC1)C(=O)N2C" = < 500 nM

# IC50 measured on GST-PLK1 (Homo sapiens) for item CC1CN(C2CCCC2)c2nc(Nc3ccc(C(=O)Nc4ccncc4)c(Cl)c3)ncc2N(C)C1=O (racemic) = > 5000 nM

# IC50 measured on GST-PLK1 (Homo sapiens) for item CC1CN(C2CCCC2)c2nc(Nc3cccc(C(=O)NC4CCN(C)CC4)c3)ncc2N(C)C1=O (racemic) = 500 to 5000 nM

# IC50 measured on GST-PLK1 (Homo sapiens) for item CC1CN(C2CCCC2)c2nc(Nc3cccc(C(=O)NCCN(C)C)c3)ncc2N(C)C1=O (racemic) = 500 to 5000 nM

# IC50 measured on GST-PLK1 (Homo sapiens) for item COc1cc(C(=O)NC2CCN(C)CC2)ccc1Nc1ncc2c(n1)N(CCC(C)C)CC(C)C(=O)N2C (racemic) = 500 to 5000 nM

# IC50 measured on GST-PLK1 (Homo sapiens) for item CC1CN(C2CCCC2)c2nc(Nc3cccc(C(=O)NC4CCCCC4)c3)ncc2N(C)C1=O (racemic) = > 5000 nM

# IC50 measured on GST-PLK1 (Homo sapiens) for item COc1cc(C(=O)NC2CCN(C)CC2)ccc1Nc1ncc2c(n1)N(CC1CCCC1)CC(C)C(=O)N2C (racemic) = < 500 nM
